Reference source for all entries: patent US9643967B2

- Tested System: hTLR9 (Homo sapiens)
- Construct: expressed in transfected cells; host or cells: HEK-Blue-hTLR9 cells (HEK293)
- Sequence (Q9NR96 26-1032): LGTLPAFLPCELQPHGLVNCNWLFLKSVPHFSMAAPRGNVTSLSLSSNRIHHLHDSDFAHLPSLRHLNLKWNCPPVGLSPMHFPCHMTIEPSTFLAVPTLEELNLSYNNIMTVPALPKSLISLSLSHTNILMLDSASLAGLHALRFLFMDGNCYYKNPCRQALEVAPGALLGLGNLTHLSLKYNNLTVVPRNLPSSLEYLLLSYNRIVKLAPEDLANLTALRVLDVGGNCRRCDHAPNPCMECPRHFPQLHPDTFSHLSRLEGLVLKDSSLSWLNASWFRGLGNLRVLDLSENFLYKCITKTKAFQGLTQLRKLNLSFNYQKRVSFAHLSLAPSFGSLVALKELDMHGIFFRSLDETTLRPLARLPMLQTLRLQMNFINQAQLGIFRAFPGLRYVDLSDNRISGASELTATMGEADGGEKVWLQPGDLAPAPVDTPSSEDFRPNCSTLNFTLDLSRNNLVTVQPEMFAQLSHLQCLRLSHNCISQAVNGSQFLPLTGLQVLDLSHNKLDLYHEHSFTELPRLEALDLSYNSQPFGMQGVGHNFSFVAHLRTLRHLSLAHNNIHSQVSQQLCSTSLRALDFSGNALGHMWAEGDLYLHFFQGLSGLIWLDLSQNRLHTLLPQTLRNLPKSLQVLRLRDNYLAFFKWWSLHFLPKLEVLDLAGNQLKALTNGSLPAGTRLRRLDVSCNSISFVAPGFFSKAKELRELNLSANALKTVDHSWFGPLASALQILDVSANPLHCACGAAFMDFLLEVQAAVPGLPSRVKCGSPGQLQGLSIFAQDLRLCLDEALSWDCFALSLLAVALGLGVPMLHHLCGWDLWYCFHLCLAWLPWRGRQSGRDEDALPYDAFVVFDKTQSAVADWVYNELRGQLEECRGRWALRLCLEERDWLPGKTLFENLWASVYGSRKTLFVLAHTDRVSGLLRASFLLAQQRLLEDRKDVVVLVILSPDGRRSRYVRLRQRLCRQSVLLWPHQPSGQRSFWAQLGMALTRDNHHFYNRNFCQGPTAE
- Protocol Summary: hTLR9 antagonism (SEAP inhibition assay) in HEK-Blue-hTLR9 (HEK293) cells, ODN-2006 stimulated
- Type: cell-based
- Condition Parameters: HEK-Blue hTLR9, 1 μM; SEAP, HEK-Blue-hTLR9 cells; read-out: hTLR9 inhibitory activity (% at 1 μM)
Quantity: inhibition at 1 µM (%)

Structure Notation: C1=C(c2ccc(-c3nccc4[nH]c(CN5CCOCC5)cc34)cc2)CCN(C2COC2)C1
Tested System: hTLR9 (Homo sapiens)
Unit Text: %
Value: 77.5
--
Structure Notation: CN1CCN(c2ccc(-c3nccc4[nH]c(CN5CCOCC5)cc34)cn2)CC1
Tested System: hTLR9 (Homo sapiens)
Unit Text: %
Value: 94.7
--
Structure Notation: CN1CCN(c2ccc(-c3nccc4[nH]c(CCN5CCOCC5)cc34)cc2)CC1
Tested System: hTLR9 (Homo sapiens)
Unit Text: %
Value: 100
--
Structure Notation: CC(C)N1CCN(c2ccc(-c3nccc4[nH]c(CN5CCC(O)CC5)cc34)cc2)CC1
Tested System: hTLR9 (Homo sapiens)
Unit Text: %
Value: 100
--
Structure Notation: c1cc2[nH]c(CN3CCOCC3)cc2c(-c2cnn(C3CCNCC3)c2)n1
Tested System: hTLR9 (Homo sapiens)
Unit Text: %
Value: 76.1
--
Structure Notation: Cc1cc2c(cc(CCN3CCOCC3)n2C)c(-c2ccc(N3CCN(C(C)C)[C@@H](C)C3)cc2)n1
Tested System: hTLR9 (Homo sapiens)
Unit Text: %
Value: 99.2
--
Structure Notation: CCN1CCN(c2ccc(-c3nc(C)c(C)c4[nH]c(CN5CCOCC5)cc34)cc2)CC1
Tested System: hTLR9 (Homo sapiens)
Unit Text: %
Value: 98.5

* * *

- Tested System: hTLR9 (Homo sapiens)
- Construct: expressed in transfected cells; host or cells: HEK-Blue-hTLR9 cells (HEK293)
- Protocol Summary: hTLR9 antagonism (SEAP inhibition assay) in HEK-Blue-hTLR9 (HEK293) cells, ODN-2006 stimulated
- Assay type: cell-based
- Condition Parameters: HEK-Blue hTLR9, 1 μM; SEAP, HEK-Blue-hTLR9 cells; read-out: hTLR9 inhibitory activity (% at 1 μM)
- Protocol: hTLR9 Antagonism (SEAP Inhibition Assay) in HEK293 Cell Lines The SEAP reporter gene in HEK-Blue™-hTLR9 cells is placed under the control of the IFN-b minimal promoter fused to five NF-kB and AP-1 binding sites. The stimulation with a TLR9 ligand (ODN-2006) activates NF-kB and AP-1 which induces the production of SEAP. Levels of SEAP are determined with QUANTI-Blue™ detection medium that turns purple/blue in the presence of alkaline phosphatase. […]
Quantity: inhibition at 1 µM (%)

Structure Notation: Cc1cc2c(cc(CCN3CCOCC3)n2C)c(-c2ccc(N3CCN(C(C)C)CC3)c(F)c2)n1
inhibition at 1 µM (%): 88.7
//
Structure Notation: CC(C)N1CCN(C(=O)c2ccc(-c3nccc4[nH]c(CN5CCOCC5)cc34)cc2)CC1
inhibition at 1 µM (%): 90
//
Structure Notation: CN1CCC(n2cc(-c3nccc4[nH]c(CN5CCOCC5)cc34)cn2)CC1
inhibition at 1 µM (%): 93.4
//
Structure Notation: c1cc2[nH]c(CN3CCOCC3)cc2c(-c2ccc(N3CCNCC3)cc2)n1
inhibition at 1 µM (%): 96

[1] CN1CCN(c2ccc(-c3nc(C(F)(F)F)cc4[nH]c(CN5CCOCC5)cc34)cc2)CC1
[2] COc1cc(-c2nc(C)cc3c2cc(CCN2CCOCC2)n3C)ccc1N1CCN(C(C)C)CC1
Sorting by inhibition at 1 µM in descending order, would 1 or 2 appear first? Please identify the chosen entry by its label.
2
(2: 99.7%, 1: 66%)
